Just for reference, patent US20110039893A1 is where these values come from.

IC50 by entry:
Target: recombinant GSK-3β enzyme (Homo sapiens)
Construct: FLAG (N)
Sequence (P49841 whole entry): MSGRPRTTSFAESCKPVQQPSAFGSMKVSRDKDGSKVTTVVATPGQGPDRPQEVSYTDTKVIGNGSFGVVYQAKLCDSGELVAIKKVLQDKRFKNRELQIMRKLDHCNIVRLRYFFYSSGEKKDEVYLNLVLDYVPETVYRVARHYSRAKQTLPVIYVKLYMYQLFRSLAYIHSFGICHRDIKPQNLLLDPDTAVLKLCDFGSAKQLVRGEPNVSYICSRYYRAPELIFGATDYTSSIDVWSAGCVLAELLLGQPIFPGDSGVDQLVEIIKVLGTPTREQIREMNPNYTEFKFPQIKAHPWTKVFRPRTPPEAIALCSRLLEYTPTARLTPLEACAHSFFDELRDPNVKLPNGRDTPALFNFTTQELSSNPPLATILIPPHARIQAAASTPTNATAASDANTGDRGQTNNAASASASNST
Assay: GSK-3β inhibitory activity evaluation (Kinase Glo luminescence, recombinant enzyme)
Details: recombinant human GSK-3β 100 ng, glycogen synthase-derived substrate peptide, 2.5 μM ATP solution, 30 min room temperature
Method: Human GSK-3β gene was cloned by PCR using human brain cDNA (Clontech; trade name: QUICK-Clone cDNA) as a template and a primer set (GSK3β-U: 5′-[…] CTT-3′ (SEQ ID NO: 1) and GSK3β-L: 5′-[…]-3′ (SEQ ID NO: 2)) prepared by reference to the base sequence of GSK-3β gene registered under an accession No. NM_002093 in the GenBank. PCR was performed according to the protocol attached to KOD plus DNA polymerase (TOYOBO CO., LTD.). […]

Sample records with IC50:
| molecule | IC50 |
| --- | --- |
| O=C(NCc1ccccn1)Nc1cc(N2CC(c3ccccc3)CC2=O)ccn1 (single isomer, unassigned; (-)) [Example 5] | < 0.1 µM |
| O=C(NCc1ccccn1)Nc1cc(N2CC(Cc3ccccc3)CC2=O)ccn1 (centres unmarked) [Example 34] | < 0.1 µM |
| CC1(c2ccccc2)CN(c2ccnc(NC(=O)NCc3ccccn3)c2)C(=O)O1 (centres unmarked) [Example 49] | < 0.1 µM |
| O=C(NCc1ccccn1)Nc1cc(N2CC(COc3ccccc3)OC2=O)ccn1 (centres unmarked) [Example 45] | < 0.1 µM |
| CC1CCN(c2ccnc(NC(=O)NCc3ccccn3)c2)C1=O (centres unmarked) [Example 51] | < 0.1 µM |
| O=C(NCc1ccccn1)Nc1cc(N2CC(c3cccc(F)c3)CC2=O)ccn1 (centres unmarked) [Example 29] | 0.1 µM |

[ask] Query IC50 on recombinant GSK-3β enzyme (Homo sapiens) for Cn1c(=O)n(-c2ccnc(NC(=O)NCc3ccccn3)c2)c2ccccc21 [Example 61]
[reply] < 0.1 µM

[ask] Could you share what IC50 was measured for CC1CCC(=O)N1c1ccnc(NC(=O)NCc2ccccn2)c1 (centres unmarked) [Example 53] , tested on recombinant GSK-3β enzyme (Homo sapiens)?
[reply] 0.1 µM
